Exercise: state measured Gmax/Gmax0 for each of the compounds provided.
- Assay target: Cav1.2/β3/α2δ (Homo sapiens)
- Construct: expressed in transfected cells; host or cells: Xenopus laevis oocytes (cRNA injection, Cav1.2:β3:α2δ 2:1:1 by weight)
- Assay explanation: Two-electrode voltage clamp of Cav1.2/β3/α2δ expressed in Xenopus oocytes (Ba2+ as charge carrier)
- Format: cell-based
- Condition set: 20 μM

May I ask what Gmax/Gmax0 has been recorded for CCCCC/C=C\C/C=C\CC/C=C\CCCC(=O)NCC(=O)O ?
0.7 ± 0.2

Suppose we examine the compound CCCCC/C=C\C/C=C\CCCCCCCC(=O)NCC(=O)O ; what Gmax/Gmax0 value has been reported?
1.0 ± 0.1

Endpoint output: Gmax/Gmax0 of CCCCC/C=C\C/C=C\CCCCCCCC(=O)NCCS(=O)(=O)O . Value?
0.5 ± 0.04

Can you share its Gmax/Gmax0? I mean this compound: CCCCC/C=C\C/C=C\C/C=C\C/C=C\CCCC(=O)NCCS(=O)(=O)O
0.6 ± 0.03

Need Gmax/Gmax0 of CC/C=C\C/C=C\C/C=C\C/C=C\C/C=C\C/C=C\CCC(=O)NCCS(=O)(=O)O , thanks.
0.8 ± 0.1

Query (compound): CCCCC/C=C\C/C=C\CC/C=C\CCCC(=O)NCCS(=O)(=O)O ; field requested: Gmax/Gmax0
0.6 ± 0.1

Can you share its Gmax/Gmax0? I mean this compound: CC/C=C\C/C=C\C/C=C\C/C=C\C/C=C\C/C=C\CCC(=O)NCC(=O)O
1.0 ± 0.1

###

- Assay target: Nav1.5/β1 (Homo sapiens)
- Construct: Nav1.5 (UniProt: Q14524.1); expressed in transfected cells; host or cells: Xenopus laevis oocytes (cRNA injection, Nav1.5:β1 2:1 by weight)
- Sequence (Q14524 whole entry): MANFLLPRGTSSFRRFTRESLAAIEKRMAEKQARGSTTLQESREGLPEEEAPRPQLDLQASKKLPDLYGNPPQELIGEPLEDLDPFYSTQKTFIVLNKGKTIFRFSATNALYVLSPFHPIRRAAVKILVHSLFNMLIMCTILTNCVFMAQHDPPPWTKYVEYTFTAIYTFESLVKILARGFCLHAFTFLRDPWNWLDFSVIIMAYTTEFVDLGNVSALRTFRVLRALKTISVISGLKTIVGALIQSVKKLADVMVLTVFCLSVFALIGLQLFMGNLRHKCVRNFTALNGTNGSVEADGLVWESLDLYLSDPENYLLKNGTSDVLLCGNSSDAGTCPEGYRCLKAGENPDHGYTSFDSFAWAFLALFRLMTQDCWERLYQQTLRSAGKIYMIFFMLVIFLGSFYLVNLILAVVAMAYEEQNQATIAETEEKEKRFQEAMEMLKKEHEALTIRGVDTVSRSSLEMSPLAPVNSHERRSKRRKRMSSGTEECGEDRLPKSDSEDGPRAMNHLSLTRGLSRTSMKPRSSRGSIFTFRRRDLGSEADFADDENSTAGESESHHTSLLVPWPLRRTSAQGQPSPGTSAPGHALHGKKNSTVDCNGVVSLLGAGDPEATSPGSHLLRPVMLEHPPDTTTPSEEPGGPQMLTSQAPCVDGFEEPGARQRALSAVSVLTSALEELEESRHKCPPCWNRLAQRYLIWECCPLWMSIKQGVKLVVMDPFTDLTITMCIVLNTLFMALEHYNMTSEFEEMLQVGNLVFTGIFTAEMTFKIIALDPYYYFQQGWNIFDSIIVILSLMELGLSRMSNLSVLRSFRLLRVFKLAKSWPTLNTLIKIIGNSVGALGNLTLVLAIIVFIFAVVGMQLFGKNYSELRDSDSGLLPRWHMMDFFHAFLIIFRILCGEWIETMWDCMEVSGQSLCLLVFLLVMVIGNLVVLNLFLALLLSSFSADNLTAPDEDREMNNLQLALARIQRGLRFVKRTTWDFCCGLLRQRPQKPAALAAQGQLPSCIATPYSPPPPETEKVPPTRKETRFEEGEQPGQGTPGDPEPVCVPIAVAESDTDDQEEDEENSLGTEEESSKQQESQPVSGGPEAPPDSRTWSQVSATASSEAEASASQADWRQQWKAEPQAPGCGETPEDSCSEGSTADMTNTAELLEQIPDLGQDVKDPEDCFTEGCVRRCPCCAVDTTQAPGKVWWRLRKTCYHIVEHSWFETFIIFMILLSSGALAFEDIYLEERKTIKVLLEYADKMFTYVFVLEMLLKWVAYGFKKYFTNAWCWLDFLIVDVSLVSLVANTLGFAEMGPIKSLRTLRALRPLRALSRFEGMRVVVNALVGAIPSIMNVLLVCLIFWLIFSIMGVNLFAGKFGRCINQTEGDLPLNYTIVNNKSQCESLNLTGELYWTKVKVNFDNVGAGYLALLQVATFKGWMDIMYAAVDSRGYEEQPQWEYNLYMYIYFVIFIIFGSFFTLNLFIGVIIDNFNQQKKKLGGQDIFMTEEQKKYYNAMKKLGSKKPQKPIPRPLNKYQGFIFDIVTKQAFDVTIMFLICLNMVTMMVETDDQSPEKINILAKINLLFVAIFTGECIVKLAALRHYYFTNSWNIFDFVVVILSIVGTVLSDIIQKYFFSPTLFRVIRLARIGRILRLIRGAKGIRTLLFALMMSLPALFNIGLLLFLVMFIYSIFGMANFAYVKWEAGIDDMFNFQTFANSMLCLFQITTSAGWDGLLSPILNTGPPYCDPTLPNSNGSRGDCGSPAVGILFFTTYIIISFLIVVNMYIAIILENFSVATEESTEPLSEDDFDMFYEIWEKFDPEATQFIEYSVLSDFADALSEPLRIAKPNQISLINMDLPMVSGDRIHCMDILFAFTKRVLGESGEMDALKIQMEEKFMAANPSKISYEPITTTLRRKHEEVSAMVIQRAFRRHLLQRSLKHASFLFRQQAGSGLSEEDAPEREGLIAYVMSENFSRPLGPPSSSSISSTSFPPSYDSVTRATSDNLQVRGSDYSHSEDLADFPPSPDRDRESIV
- Sequence (Q07699 19-218 partner): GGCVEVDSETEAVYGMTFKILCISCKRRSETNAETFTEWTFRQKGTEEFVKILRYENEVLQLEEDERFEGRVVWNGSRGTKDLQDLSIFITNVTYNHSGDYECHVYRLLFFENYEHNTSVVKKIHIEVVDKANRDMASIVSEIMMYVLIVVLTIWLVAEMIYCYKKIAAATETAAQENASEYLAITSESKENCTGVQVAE
- Assay explanation: Two-electrode voltage clamp of Nav1.5/β1 expressed in Xenopus oocytes
- Format: cell-based
- Condition set: 0.2 μM; relative current at 0 mV
Kindly supply the reported INa I/I0 values for the records listed here.
Please respond with just the number, no unit label.

API: value(readout= INa I/I0, system= Nav1.5/β1 (Homo sapiens), query= CCCCC/C=C\C/C=C\CC/C=C\CCCC(=O)NCC(=O)O [Pin-glycine] )
1.1

Observed INa I/I0 on Nav1.5/β1 (Homo sapiens) for CCCCC/C=C\C/C=C\CCCCCCCC(=O)NCC(=O)O [Lin-glycine] , please.
1.0

Given the entry CCCCC/C=C\C/C=C\CC/C=C\CCCC(=O)NCCS(=O)(=O)O [Pin-taurine] , what INa I/I0 was observed with Nav1.5/β1 (Homo sapiens)?
1.2

Test system Nav1.5/β1 (Homo sapiens); read-out INa I/I0; what value for CC/C=C\C/C=C\C/C=C\C/C=C\C/C=C\C/C=C\CCC(=O)NCCS(=O)(=O)O [DHA-taurine] ?
1.0

Notebook: pull reported INa I/I0 for Nav1.5/β1 (Homo sapiens), entry CCCCC/C=C\C/C=C\C/C=C\C/C=C\CCCC(=O)NCCS(=O)(=O)O [N-AT, N-arachidonoyl taurine]
1.0

Lookup: INa I/I0 / Nav1.5/β1 (Homo sapiens) / CCCCC/C=C\C/C=C\CCCCCCCC(=O)NCCS(=O)(=O)O [Lin-taurine, Linoleoyl taurine]
1.0

Which INa I/I0 is reported with Nav1.5/β1 (Homo sapiens) for this entry: CC/C=C\C/C=C\C/C=C\C/C=C\C/C=C\C/C=C\CCC(=O)NCC(=O)O [DHA-glycine, docosahexaenoyl glycine] ?
1.0
